- STUDY_TARGET: Death-associated protein kinase 3 (Homo sapiens)
- RECORDED_CONDITIONS: at 10 µM
Please mark 1 if the recorded residual activity is equal to or greater than 90%, and 0 if it falls below.

| COMPOUND_SMILES | LABEL_CLASS |
| --- | --- |
| N#C/C(=C1/Nc2ccccc2S1)c1ccnc(NCCc2cccnc2)n1 | 0 |
| O=C(Nc1nc2ccccc2n1CCN1CCOCC1)c1cccc([N+](=O)[O-])c1 | 0 |
| CCN(CC)CCNC(=O)c1c(C)[nH]c(/C=C2\C(=O)Nc3ccc(Cl)cc32)c1C | 0 |
| Cn1sc(=O)n(Cc2ccccc2)c1=O | 1 |
| COc1ccc(Cl)cc1NC(=O)Nc1cc(C)nc2ccccc12 | 0 |
| CN(C)S(=O)(=O)c1ccc2c(c1)/C(=C/c1cc3c([nH]1)CCCC3)C(=O)N2 | 1 |

**Q:** Given the entry CC(C)(C)n1nc(Cc2cccc3ccccc23)c2c(N)ncnc21 , answer whether its residual activity meets or surpasses 90%.
**A:** 1

**Q:** Given the entry COc1cc2c(cc1OC)-c1n[nH]c(Nc3cccc(F)c3)c1C2 , answer whether its residual activity meets or surpasses 90%.
**A:** 1

* * *

Each entry below lists one item and its recorded residual activity value.
- STUDY_TARGET: Mitogen-activated protein kinase 3 (Homo sapiens)
- RECORDED_CONDITIONS: at 10 µM
- Description: Millipore: Percentage of residual kinase activity of MAPK3 at 10uM relative to control. Control inhibitor: ERK Inhibitor II at 30.0uM. Buffer: 25 mM Tris pH 7.5, 0.02 mM EGTA
// note: answer is a bare numeric in %

Example compounds with recorded residual activity:
| COMPOUND | READOUT_UNITS | REPORTED_VALUE |
| --- | --- | --- |
| Nc1ncnc2c1c(-c1ccc(Oc3ccccc3)cc1)cn2C1CCCC1 | % | 66 |
| CC(C)(C)c1nc2c3ccc(F)cc3c3c(=O)[nH]ccc3c2[nH]1 | % | 64 |
| CCCC(=O)Oc1ccc2[nH]c(C(=O)c3cc4ccccc4[nH]3)cc2c1 | % | 80 |
| CC(C)N(CCC(=O)c1ccc2ccccc2c1)Cc1ccccc1 | % | 76 |

**Q:** Provide the reported residual activity (system: Mitogen-activated protein kinase 3 (Homo sapiens)) for O=C(c1cc2cc(O)ccc2[nH]1)c1cc2cc(O)ccc2[nH]1
**A:** 64

**Q:** Provide the reported residual activity (system: Mitogen-activated protein kinase 3 (Homo sapiens)) for Nc1ncnc2[nH]nc(Nc3ccc(F)cc3)c12
**A:** 43

**Q:** Provide the reported residual activity (system: Mitogen-activated protein kinase 3 (Homo sapiens)) for O=C1NC(=O)C(c2cn(CCCn3ccnc3)c3ccccc23)=C1Nc1ccccc1
**A:** 70

**Q:** Provide the reported residual activity (system: Mitogen-activated protein kinase 3 (Homo sapiens)) for O=c1cc(N2CCOCC2)oc2c1ccc1ccccc12
**A:** 80

**Q:** Provide the reported residual activity (system: Mitogen-activated protein kinase 3 (Homo sapiens)) for Cn1sc(=O)n(Cc2ccccc2)c1=O
**A:** 92

**Q:** Provide the reported residual activity (system: Mitogen-activated protein kinase 3 (Homo sapiens)) for Fc1ccc(-c2nc3n(c2-c2ccncc2)CCS3)cc1
**A:** 92

**Q:** Provide the reported residual activity (system: Mitogen-activated protein kinase 3 (Homo sapiens)) for O=C1Nc2ccc(Cl)cc2/C1=C/c1cc(Cl)c(O)c(Cl)c1
**A:** 70

**Q:** Provide the reported residual activity (system: Mitogen-activated protein kinase 3 (Homo sapiens)) for COc1cc2ncnc(Nc3cccc(Cl)c3)c2cc1OC
**A:** 65

* * *

- STUDY_TARGET: Serine/threonine-protein kinase ULK3 (Homo sapiens) (UniProt Q6PHR2)
- Sequence (whole entry): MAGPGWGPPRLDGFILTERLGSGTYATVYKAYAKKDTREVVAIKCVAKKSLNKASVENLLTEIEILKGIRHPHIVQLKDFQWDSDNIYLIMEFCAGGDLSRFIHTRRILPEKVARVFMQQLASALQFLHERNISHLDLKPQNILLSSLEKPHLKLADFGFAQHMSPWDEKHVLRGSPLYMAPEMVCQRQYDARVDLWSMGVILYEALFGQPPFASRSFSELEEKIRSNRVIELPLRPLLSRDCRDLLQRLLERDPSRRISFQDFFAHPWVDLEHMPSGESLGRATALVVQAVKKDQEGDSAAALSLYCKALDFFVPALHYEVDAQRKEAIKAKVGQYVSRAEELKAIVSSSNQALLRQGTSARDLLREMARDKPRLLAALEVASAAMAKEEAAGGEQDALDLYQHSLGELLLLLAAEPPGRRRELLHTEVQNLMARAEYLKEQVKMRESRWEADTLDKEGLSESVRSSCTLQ
- RECORDED_CONDITIONS: at 10 µM
Please mark True if the recorded residual activity is equal to or greater than 70%, and False if it falls below.

// known answers, use as guide
| COMPOUND | LABEL_CLASS |
| --- | --- |
| Nc1n[nH]c2nc3ccccc3nc12 | True |
| Oc1cccc(-c2nc(N3CCOCC3)c3oc4ncccc4c3n2)c1 | True |
| O=C(c1ccccc1)c1ccc(N2CCOCC2)cc1O | True |
| O=C(NC(NC(=S)Nc1ccc(F)c([N+](=O)[O-])c1)C(Cl)(Cl)Cl)C(c1ccccc1)c1ccccc1 (configuration not stated) | True |
| O=C1C(Cl)=C(N2C(=O)CCC2=O)C(=O)c2ccccc21 | True |

Shift focus to the following entry.
**Q:** Given the entry COc1ccc(Cl)cc1NC(=O)Nc1cc(C)nc2ccccc12 , answer whether its residual activity meets or surpasses 70%.
**A:** True

* * *

- STUDY_TARGET: Focal adhesion kinase 1 (Homo sapiens) (UniProt Q05397)
- Sequence (Q05397 2-1052 limits assumed): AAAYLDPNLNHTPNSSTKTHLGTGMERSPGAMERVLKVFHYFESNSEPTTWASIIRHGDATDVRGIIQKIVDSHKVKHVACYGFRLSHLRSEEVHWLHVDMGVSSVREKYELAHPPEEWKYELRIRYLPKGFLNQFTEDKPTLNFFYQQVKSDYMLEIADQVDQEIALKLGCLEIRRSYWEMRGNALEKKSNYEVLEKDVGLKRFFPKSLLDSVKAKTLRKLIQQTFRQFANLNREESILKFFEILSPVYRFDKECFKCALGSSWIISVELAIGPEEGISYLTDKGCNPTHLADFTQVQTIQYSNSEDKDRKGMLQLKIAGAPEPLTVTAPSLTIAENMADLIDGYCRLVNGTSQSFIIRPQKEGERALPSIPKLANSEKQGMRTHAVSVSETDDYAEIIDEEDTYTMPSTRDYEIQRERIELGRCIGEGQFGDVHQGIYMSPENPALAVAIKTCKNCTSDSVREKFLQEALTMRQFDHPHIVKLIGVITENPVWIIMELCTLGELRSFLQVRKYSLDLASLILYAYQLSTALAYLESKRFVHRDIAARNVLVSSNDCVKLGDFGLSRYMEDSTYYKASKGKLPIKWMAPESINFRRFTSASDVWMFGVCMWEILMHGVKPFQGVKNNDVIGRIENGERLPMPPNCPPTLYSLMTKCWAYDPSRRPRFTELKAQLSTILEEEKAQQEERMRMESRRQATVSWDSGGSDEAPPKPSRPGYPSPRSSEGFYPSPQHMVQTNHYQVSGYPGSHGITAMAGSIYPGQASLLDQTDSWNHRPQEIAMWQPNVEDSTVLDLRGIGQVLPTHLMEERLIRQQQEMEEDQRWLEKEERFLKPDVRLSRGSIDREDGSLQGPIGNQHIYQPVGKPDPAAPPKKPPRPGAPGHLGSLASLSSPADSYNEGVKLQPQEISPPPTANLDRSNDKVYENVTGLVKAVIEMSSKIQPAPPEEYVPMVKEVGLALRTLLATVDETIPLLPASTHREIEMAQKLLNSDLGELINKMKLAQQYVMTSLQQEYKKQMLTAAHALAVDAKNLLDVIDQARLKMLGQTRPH
- RECORDED_CONDITIONS: at 1 µM
EXPERIMENTAL_READOUT: residual activity (%)
// note: answer is a bare numeric in %

| COMPOUND_SMILES | STUDY_TARGET | residual activity (%) |
| --- | --- | --- |
| O=C(c1ccccc1)c1ccc(N2CCOCC2)cc1O | Focal adhesion kinase 1 (Homo sapiens) (UniProt Q05397) | 139 |

**Q:** Provide the reported residual activity (system: Focal adhesion kinase 1 (Homo sapiens) (UniProt Q05397)) for O=C1C(Cl)=C(N2C(=O)CCC2=O)C(=O)c2ccccc21
**A:** 93

**Q:** Provide the reported residual activity (system: Focal adhesion kinase 1 (Homo sapiens) (UniProt Q05397)) for CC(C)c1nn(-c2c(Cl)cccc2Cl)c2nc(Cc3ccc(OCCO)cc3)[nH]c(=O)c12
**A:** 109

**Q:** Provide the reported residual activity (system: Focal adhesion kinase 1 (Homo sapiens) (UniProt Q05397)) for O=c1cc(N2CCOCC2)oc2c1ccc1ccccc12
**A:** 132

**Q:** Provide the reported residual activity (system: Focal adhesion kinase 1 (Homo sapiens) (UniProt Q05397)) for CC(C)[C@H](CO)Nc1nc(Nc2cc(N)cc(Cl)c2)c2ncn(C(C)C)c2n1
**A:** 42

**Q:** Provide the reported residual activity (system: Focal adhesion kinase 1 (Homo sapiens) (UniProt Q05397)) for CCN(CC)CCNC(=O)c1c(C)[nH]c(/C=C2\C(=O)Nc3ccc(Cl)cc32)c1C
**A:** 15

**Q:** Provide the reported residual activity (system: Focal adhesion kinase 1 (Homo sapiens) (UniProt Q05397)) for Nc1nc(Nc2ccc(S(N)(=O)=O)cc2)nn1C(=O)c1c(F)cccc1F
**A:** 102

**Q:** Provide the reported residual activity (system: Focal adhesion kinase 1 (Homo sapiens) (UniProt Q05397)) for CCOC(=O)c1c(C)[nH]c(/C=C2\C(=O)Nc3ccccc32)c1C
**A:** 133

**Q:** Provide the reported residual activity (system: Focal adhesion kinase 1 (Homo sapiens) (UniProt Q05397)) for O=C(O)/C=C/c1cc(Br)c(Br)c(Br)c1Br
**A:** 98

**Q:** Provide the reported residual activity (system: Focal adhesion kinase 1 (Homo sapiens) (UniProt Q05397)) for O=C(c1cc2cc(O)ccc2[nH]1)c1cc2cc(O)ccc2[nH]1
**A:** 112

* * *

- STUDY_TARGET: Aurora kinase C (Homo sapiens)
- RECORDED_CONDITIONS: at 1 µM
Values of residual activity strictly less than 90% map to class 1, and values of at least 90% map to class 0.

| COMPOUND | STUDY_TARGET | LABEL_CLASS |
| --- | --- | --- |
| O=C1NC(=O)C(c2cn(CCCO)c3ncccc23)=C1c1cnccn1 | Aurora kinase C (Homo sapiens) | class 0 |
| COc1ccc(-c2cnc3c(-c4ccsc4)cnn3c2)cc1 | Aurora kinase C (Homo sapiens) | class 0 |
| Nc1ncnc2[nH]nc(Nc3ccc(F)cc3)c12 | Aurora kinase C (Homo sapiens) | class 1 |
| O=c1cc(N2CCOCC2)oc2c1ccc1ccccc12 | Aurora kinase C (Homo sapiens) | class 0 |
| COc1cc2nccc(Oc3ccc(NC(=S)NC(=O)c4ccccc4C)cc3)c2cc1OC | Aurora kinase C (Homo sapiens) | class 1 |

**Q:** API: query returns whether the compound falls strictly under 90% in residual activity. Query: O=C(O)/C=C/c1cc(Br)c(Br)c(Br)c1Br
**A:** class 0

**Q:** API: query returns whether the compound falls strictly under 90% in residual activity. Query: CCCC(=O)Oc1ccc2[nH]c(C(=O)c3cc4ccccc4[nH]3)cc2c1
**A:** class 0

**Q:** API: query returns whether the compound falls strictly under 90% in residual activity. Query: Cn1sc(=O)n(Cc2ccccc2)c1=O
**A:** class 1

**Q:** API: query returns whether the compound falls strictly under 90% in residual activity. Query: Nc1n[nH]c2nc3ccccc3nc12
**A:** class 1

**Q:** API: query returns whether the compound falls strictly under 90% in residual activity. Query: CC(C)(C)c1nc2c3ccc(F)cc3c3c(=O)[nH]ccc3c2[nH]1
**A:** class 1

**Q:** API: query returns whether the compound falls strictly under 90% in residual activity. Query: NC(=O)Nc1sc(-c2ccc(F)cc2)cc1C(N)=O
**A:** class 1

**Q:** API: query returns whether the compound falls strictly under 90% in residual activity. Query: O=C1NC(=O)c2c1c1c3ccccc3[nH]c1n1cncc21
**A:** class 1

**Q:** API: query returns whether the compound falls strictly under 90% in residual activity. Query: O=C1NC(=O)C(c2c[nH]c3ccccc23)=C1c1c[nH]c2ccccc12
**A:** class 0

**Q:** API: query returns whether the compound falls strictly under 90% in residual activity. Query: CCN(CC)CCNC(=O)c1c(C)[nH]c(/C=C2\C(=O)Nc3ccc(Cl)cc32)c1C
**A:** class 1

**Q:** API: query returns whether the compound falls strictly under 90% in residual activity. Query: O=C(NC(NC(=S)Nc1ccc(F)c([N+](=O)[O-])c1)C(Cl)(Cl)Cl)C(c1ccccc1)c1ccccc1 (stereo not drawn)
**A:** class 0

**Q:** API: query returns whether the compound falls strictly under 90% in residual activity. Query: Fc1ccc(-c2nc3n(c2-c2ccncc2)CCS3)cc1
**A:** class 0

**Q:** API: query returns whether the compound falls strictly under 90% in residual activity. Query: CN(C)S(=O)(=O)c1ccc2c(c1)/C(=C/c1cc3c([nH]1)CCCC3)C(=O)N2
**A:** class 1

**Q:** API: query returns whether the compound falls strictly under 90% in residual activity. Query: CC(C)(C)n1nc(Cc2cccc3ccccc23)c2c(N)ncnc21
**A:** class 0

**Q:** API: query returns whether the compound falls strictly under 90% in residual activity. Query: O=S(=O)(NCCNC/C=C/c1ccc(Br)cc1)c1cccc2cnccc12
**A:** class 1
